These measurements were taken from patent US20210253725A1.

tested on: T1, CD27 expressed on the cell surface (HT1080_CD27 cells) (human, UniProt P26842 20-260); further: test concentration or dose not given here
T1 sequence (looked up): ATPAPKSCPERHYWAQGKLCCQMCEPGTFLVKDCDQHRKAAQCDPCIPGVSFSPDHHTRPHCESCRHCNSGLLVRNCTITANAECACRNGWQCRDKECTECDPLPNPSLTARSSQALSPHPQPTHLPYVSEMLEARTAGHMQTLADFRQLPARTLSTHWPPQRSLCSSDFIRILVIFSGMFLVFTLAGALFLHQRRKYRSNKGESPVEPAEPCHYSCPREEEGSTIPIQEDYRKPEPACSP
procedure text: cell-based or functional assay
reported endpoint: IL-8 [abs. corr.]

| binder | recorded result |
| --- | --- |
| P018.S.02.A.B05 (antibody, V domains shown, V regions on human Ig constant parts; also called AB27_31) VH: QEQLVESGGGLVQPEGSLTLTCKASGFDFSSSYYMSWVRQAPGKGLEWIACIDTADGYTYYASWAKGRFTISKTSSTTVSLQMTSLTAADTATYFCARERIAYNTDYFNLWGPGTLVTVSS VL: AQVLTQTPSPVSAAVGGTVTISCQSSQSLYNYNNLAWYQQKPGQPPKLLIYSVSNLASGVPSRFGGSGSGTQFTLTISDLQSDDAATYYCQGYYSGAVYTFGGGTEVVVK | 0.201 abs. corr. |
